test system: THP-1 macrophages infected with Mycobacterium tuberculosis H37Rv; assay: intracellular M.tb growth inhibition relative to DMSO (0) and 4 uM bedaquiline (100); higher = stronger inhibition of intracellular bacterial growth; conditions: 10 µM; 4 days
Decision: intracellular M.tb growth inhibition >= 10% yields Yes, all other cases yield No.

[
  {
    "COMPOUND": "O=C1NCc2c1c1c3ccccc3[nH]c1c1[nH]c3ccccc3c21",
    "ASSIGNED CLASS": "Yes"
  },
  {
    "COMPOUND": "CC(C)[C@H](CO)Nc1nc(Nc2ccc(C(=O)O)c(Cl)c2)c2ncn(C(C)C)c2n1 [Purvalanol B]",
    "ASSIGNED CLASS": "No"
  },
  {
    "COMPOUND": "Cn1cc(/C=C2\\C(=O)Nc3cccnc32)c2ccccc21",
    "ASSIGNED CLASS": "No"
  },
  {
    "COMPOUND": "CNC(=O)c1cc(Oc2ccc(NC(=O)Nc3ccc(Cl)c(C(F)(F)F)c3)c(F)c2)ccn1",
    "ASSIGNED CLASS": "Yes"
  },
  {
    "COMPOUND": "Nc1ncnc(Nc2ccc(OCc3ccccc3)c(Cl)c2)c1/C=N/OCCN1CCOCC1",
    "ASSIGNED CLASS": "Yes"
  },
  {
    "COMPOUND": "COc1cc2ncnc(Nc3ccc(Cl)cc3F)c2cc1OC",
    "ASSIGNED CLASS": "Yes"
  },
  {
    "COMPOUND": "COc1cc2ncn(-c3cc(OCc4ccccc4C(F)(F)F)c(C(N)=O)s3)c2cc1OC",
    "ASSIGNED CLASS": "Yes"
  },
  {
    "COMPOUND": "Nc1ncnc2c1c(-c1cccc(OCc3ccccc3)c1)cn2C1CC(CN2CCC2)C1 (centres undefined)",
    "ASSIGNED CLASS": "No"
  },
  {
    "COMPOUND": "Cc1cc(C)c(/C=C2\\C(=O)Nc3ccccc32)[nH]1",
    "ASSIGNED CLASS": "No"
  },
  {
    "COMPOUND": "COc1cc(/C=C(\\C#N)C(N)=O)cc(CSc2nc3ccccc3s2)c1O",
    "ASSIGNED CLASS": "Yes"
  },
  {
    "COMPOUND": "C/C(=N\\N=C(N)N)c1ccc(NC(=O)Nc2ccc(/C(C)=N/N=C(N)N)cc2)cc1",
    "ASSIGNED CLASS": "Yes"
  },
  {
    "COMPOUND": "Cc1c(NC(=O)OC[C@@H]2COCCN2)cn2ncnc(Nc3ccc4c(cnn4Cc4cccc(F)c4)c3)c12",
    "ASSIGNED CLASS": "Yes"
  },
  {
    "COMPOUND": "Cn1c(=O)n(-c2ccc(C(C)(C)C#N)cc2)c2c3cc(-c4cnc5ccccc5c4)ccc3ncc21",
    "ASSIGNED CLASS": "Yes"
  },
  {
    "COMPOUND": "Cc1[nH]c(/C=C2\\C(=O)Nc3ccc(S(=O)(=O)N(C)c4cccc(Cl)c4)cc32)c(C)c1C(=O)N1CCN(C)CC1",
    "ASSIGNED CLASS": "Yes"
  },
  {
    "COMPOUND": "Cn1cc(-c2cnc3ccc4ccc(CS(=O)(=O)NCc5ccccn5)cc4c(=O)c3c2)cn1",
    "ASSIGNED CLASS": "No"
  },
  {
    "COMPOUND": "Cc1nc(N)sc1-c1ccnc(Nc2ccc(N3CCOCC3)cc2)n1",
    "ASSIGNED CLASS": "Yes"
  },
  {
    "COMPOUND": "Cc1cn(-c2cc(NC(=O)c3ccc(C)c(Nc4nccc(-c5cccnc5)n4)c3)cc(C(F)(F)F)c2)cn1 [Nilotinib]",
    "ASSIGNED CLASS": "No"
  },
  {
    "COMPOUND": "CCn1c(-c2nonc2N)nc2c(C#CC(C)(C)O)ncc(OC[C@H]3CCCNC3)c21",
    "ASSIGNED CLASS": "No"
  },
  {
    "COMPOUND": "COc1cc2ncnc(Nc3ccc(F)c(Cl)c3)c2cc1OCCCN1CCOCC1 [Gefitinib]",
    "ASSIGNED CLASS": "Yes"
  }
]
